Target: GATA2-Zf (UniProt P23769 291-412)
Sequence (P23769 291-412): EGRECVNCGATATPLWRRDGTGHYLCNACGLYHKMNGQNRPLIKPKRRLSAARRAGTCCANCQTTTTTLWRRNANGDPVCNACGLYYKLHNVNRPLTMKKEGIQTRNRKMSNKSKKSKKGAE
Experiment: fluorescence anisotropy; Hill n 1.3±0.4; Fluorescence anisotropy: 10 nM DNA, 20 mM Hepes pH 8.0, 50 mM NaCl, 1 mM MgCl2, 3 mM DTT, 5% glycerol, 10°C; agarose gel 1.3% in 0.5x TBE
Conditions: protein: recombinant; tags: His, thrombin treated; label: 5' fluorescein (FITC) on forward strand; blunt
observed_property: Kd

Which Kd is listed for GATA-RE (canonical) (dsDNA) DNA 1: CACTTGATAACAGAAAGTGATAACTCT DNA 2: AGAGTTATCACTTTCTGTTATCAAGTG ?
0.0149 µM
